molecular target: human CB2 receptors (Homo sapiens (Human), UniProt P34972); assay: functional cAMP assay, CB2; type: cell-based; conditions: functional cAMP assay, CHO cells expressing human CB2; read-out: human CB2 EC50
Sequence (P34972 whole entry): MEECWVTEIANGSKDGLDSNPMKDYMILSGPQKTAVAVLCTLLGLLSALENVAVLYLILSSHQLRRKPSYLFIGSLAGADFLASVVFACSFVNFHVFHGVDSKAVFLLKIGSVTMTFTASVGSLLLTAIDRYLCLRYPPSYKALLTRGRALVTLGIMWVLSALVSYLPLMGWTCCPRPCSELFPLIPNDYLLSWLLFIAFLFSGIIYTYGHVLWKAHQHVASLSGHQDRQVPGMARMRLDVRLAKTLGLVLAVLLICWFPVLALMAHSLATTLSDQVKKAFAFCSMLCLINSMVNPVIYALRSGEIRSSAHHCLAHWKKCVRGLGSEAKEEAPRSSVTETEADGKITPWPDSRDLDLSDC
pEC50: −log10 of the molar value.

molecule	pEC50
Cc1nc(C(C)(C)NC(=O)c2cnc(N3CC(F)(F)C3)c(-c3cccc(Cl)c3)n2)no1	6.97
CC(C)C[C@H](NC(=O)c1cnc(N2CC(F)(F)C2)c(OCC2CC2)n1)C(=O)NCC(F)(F)F	7.24
CC(C)[C@H](CC(N)=O)NC(=O)c1cnc(C2CC2)c(OCC2CC2)n1	7.79
CC(C)[C@H](CC(N)=O)NC(=O)c1cnc(N2CC(F)(F)C2)c(OCC2CC2)n1	8.19
COCCC(C)(C)NC(=O)c1cnc(C2CC2)c(OCC2CC2)n1	7.65
CC(C)(O)[C@H](CC1CC1)NC(=O)c1cnc(N2CC(F)(F)C2)c(OCC2CC2)n1	7.43
COC(=O)[C@@H](NC(=O)c1cnc(C2CC2)c(OCC2CC2)n1)C(C)(C)C	8.77
O=C(NC(CO)CC1CCC1)c1cnc(C2CC2)c(OCC2CC2)n1 (stereo not shown)	7.43
Cc1nc(C(C)(CC2CC2)NC(=O)c2cnc(N3CC(F)(F)C3)c(OCC3CC3)n2)no1 (stereo not shown)	7.84
NC(=O)C(CC1CCC1)NC(=O)c1cnc(N2CC(F)(F)C2)c(OCC2CC2)n1 (stereo not shown)	8.25
Cc1nc(C(C)(C)NC(=O)c2cnc(C3CC3)c(OCC3CC3)n2)no1	7.29
Cc1nc([C@@](C)(CC2CC2)NC(=O)c2cnc(N3CC(F)(F)C3)c(OCC3CC3)n2)no1	8.40
CNC(=O)C(CC1CCC1)NC(=O)c1cnc(C2CC2)c(OCC2CC2)n1 (stereo not shown)	7.23
Cc1nc(C(C)(C)NC(=O)c2cnc(N3CCC3)c(-c3cccc(Cl)c3)n2)no1	6.85
CCC(C)(CO)NC(=O)c1cnc(C2CC2)c(OCC2CC2)n1 (stereo not shown)	7.20
Cc1nc([C@@](C)(NC(=O)c2cnc(N3CC(F)(F)C3)c(OCC3CC3)n2)C2CC2)no1	7.63
CC(C)C(NC(=O)c1cnc(N2CC(F)(F)C2)c(OCC2CC2)n1)C(=O)N(C)C (stereo not shown)	7.69
O=C(NC(CO)C1CC1)c1cnc(N2CC(F)(F)C2)c(OCC2CC2)n1 (stereo not shown)	7.21
NC(=O)[C@H](CC1CC1)NC(=O)c1cnc(C2CC2)c(OCC2CC2)n1	7.36
CNC(=O)[C@H](CC(C)C)NC(=O)c1cnc(C2CC2)c(OCC2CC2)n1	7.87
NC(=O)[C@@H](NC(=O)c1cnc(C2CC2)c(OCC2CC2)n1)c1ccc(F)cc1	7.02
Cc1csc(C(C)(C)NC(=O)c2cnc(C3CC3)c(OCC3CC3)n2)n1	6.73
Cc1nc([C@@H](C)NC(=O)c2cnc(N3CC(F)(F)C3)c(OCC3CC3)n2)no1	7.14
NC(=O)CC1(NC(=O)c2cnc(C3CC3)c(OCC3CC3)n2)COC1	7.84
CC(C)(C)C(CO)NC(=O)c1cnc(C2CC2)c(OCC2CC2)n1 (stereo not shown)	7.27
NC(=O)[C@@H](NC(=O)c1cnc(N2CC(F)(F)C2)c(OCC2CC2)n1)c1ccc(Cl)cc1	6.94
COC(=O)C(C)(NC(=O)c1cnc(N2CC(F)(F)C2)c(OCC2CC2)n1)C1CC1 (stereo not shown)	9.15
Cc1nc([C@](C)(CC2CC2)NC(=O)c2cnc(N3CC(F)(F)C3)c(OCC3CC3)n2)no1	7.76
COC(=O)[C@H](CC1CC1)NC(=O)c1cnc(C2CC2)c(OCC2CC2)n1	7.36
Cc1csc(C(C)(C)NC(=O)c2cnc(N3CC(F)(F)C3)c(OCC3CC3)n2)n1	7.66
Cc1nc(C2(NC(=O)c3cnc(N4CC(F)(F)C4)c(OCC4CC4)n3)CCC2)no1	7.06
Cc1nc(C(C)(NC(=O)c2cnc(C3CC3)c(OCC3CC3)n2)C2CC2)no1 (stereo not shown)	7.64
CC(C)(CCCO)NC(=O)c1cnc(C2CC2)c(OCC2CC2)n1	7.32
O=C(NC1(CO)CCCCC1)c1cnc(C2CC2)c(OCC2CC2)n1	7.92

// provenance: patent US9403808B2
